Consider the following compounds; for each one, report its T/C.
- Test system: P388 leukemia ip, CD2F1 mice, survival T/C
- assayOverview: NCI In Vivo Anticancer Drug Screen. Data for tumor model P388 Leukemia (intraperitoneal) in CD2F1 (CDF1) mice
- measurementConditions: endpoint: median survival time; dose: 50.0 mg/kg/injection; schedule: Q01DX009 (ip); vehicle: Klucel (hydroxypropylcellulose) (HPC); higher = longer survival
- Procedure: The antitumor activity of compounds was measured in mice bearing transplantable tumors. Survival or tumor size were measured and the results are expressed as the measurement made in the treated group (T) divided by the measurement made in the vehicle treated control group (C). The tumor model used in this assay is P388 Leukemia (intraperitoneal) in CD2F1 (CDF1) mice
Toxic doses and inconclusive results are not listed.

Consider the compound O=C(O)/C=C/c1ccc([N+](=O)[O-])o1 and give its recorded T/C.
120 % of control

Input Cc1ccc(S(=O)(=O)/N=S(\C)CC(C)Cl)cc1 (configuration not stated) , output reported T/C.
100 % of control

Return value of T/C for input Cc1[nH]nc2c(Cc3ccco3)n[nH]c(=O)c12 , no commentary.
101 % of control

Tell me T/C reported for CN1CCCc2cc(/C=C\c3ccnc4ccccc34)ccc21
104 % of control

Using the record for CCCCCCCCCCCCNC(=S)C(=S)NCCCCCCCCCCCC , state its measured T/C.
95 % of control

Respond only with T/C recorded for COc1cccc(C)c1C(O)CC1CCCN1 (configuration not stated)
106 % of control

Please give the documented T/C of Cc1ccc(C)c(NC(=O)Nc2ccc(C(=O)O)c(O)c2)c1
101 % of control

====

- System: P388 leukemia ip, CD2F1 mice, survival T/C
- assayOverview: NCI In Vivo Anticancer Drug Screen. Data for tumor model P388 Leukemia (intraperitoneal) in CD2F1 (CDF1) mice
- measurementConditions: endpoint: median survival time; dose: 50.0 mg/kg/injection; schedule: Q04DX003 (ip); vehicle: saline; higher = longer survival
Toxic doses and inconclusive results are not listed.
measureName: T/C

In one line, give reported T/C of the entry CNCC1CCCCC1NC (centres undefined) .
99 % of control

Return the recorded T/C value; entry: CC(C)(C#N)NNC(N)=S
96 % of control

Quick one: give measured T/C for NC(CCC(=O)OCc1ccccc1)C(=O)OCc1ccccc1 (centres undefined)
100 % of control

Consider the molecule NC(N)=N/N=C/C(Cl)Cl and give its recorded T/C.
100 % of control

====

- Test system: P388 leukemia ip, CD2F1 mice, survival T/C
- assayOverview: NCI In Vivo Anticancer Drug Screen. Data for tumor model P388 Leukemia (intraperitoneal) in CD2F1 (CDF1) mice
- measurementConditions: endpoint: median survival time; dose: 200.0 mg/kg/injection; schedule: Q04DX002 (ip); vehicle: saline with Tween-80; higher = longer survival
- Experimental: The antitumor activity of compounds was measured in mice bearing transplantable tumors. Survival or tumor size were measured and the results are expressed as the measurement made in the treated group (T) divided by the measurement made in the vehicle treated control group (C). The tumor model used in this assay is P388 Leukemia (intraperitoneal) in CD2F1 (CDF1) mice
Inconclusive results and toxic doses are left out.
measureName: T/C

Entry Cn1nnc(-c2ccccc2)n1 needs its T/C filled in; supply it.
102 % of control

Return T/C for the following compound: O=C1c2cccc3cc([N+](=O)[O-])cc(c23)C(=O)N1CCN1CCN(CCN2C(=O)c3cccc4cc([N+](=O)[O-])cc(c34)C2=O)CC1
98 % of control

Tell us which T/C value is on record for Cc1cc(-c2ccccc2)c(C)c(-c2ccccc2)c1-c1ccccc1
101 % of control

Check the records and state T/C for C=COC(=O)C(Cc1cc(OC)c(OC)c(OC)c1)NC(=O)OCc1ccccc1 (stereo not given)
101 % of control

Determine its reported T/C: CSc1nccc(=O)n1-c1ccc(C)cc1
102 % of control

====

- System: P388 leukemia ip, CD2F1 mice, survival T/C
- assayOverview: NCI In Vivo Anticancer Drug Screen. Data for tumor model P388 Leukemia (intraperitoneal) in CD2F1 (CDF1) mice
- measurementConditions: endpoint: median survival time; dose: 200.0 mg/kg/injection; schedule: Q01DX001 (ip); vehicle: saline with Tween-80; higher = longer survival
Toxic doses and inconclusive results are not listed.
I'd appreciate it if you could supply T/C values for the items below.

Tell me measured T/C for CN1C(c2ccccc2)C2CCCC(C1c1ccccc1)C21NC(=O)NC1=O (stereo unspecified) please.
94 % of control

Determine its reported T/C: C=CCNC(=S)N/N=C(/C=C/c1ccc(OC)cc1)CCN(C)C
89 % of control

Given the compound COc1ccc(N2C(=O)CCC2=O)cc1 , write its reported T/C.
100 % of control

Answer with reported T/C of Clc1ccc(C=Nc2ccc(N=Cc3ccc(Cl)cc3)cc2)cc1
88 % of control

Complete the entry with T/C for O=c1c2cc(Cl)cc(Cl)c2nc2n1S(=O)(=O)c1ccccc1N2c1ccccc1
91 % of control

Please give measured T/C of the following entry: CC(C)(C)NC(=O)C(Cl)Cl
95 % of control

====

- Tested on: P388 leukemia ip, CD2F1 mice, survival T/C
- assayOverview: NCI In Vivo Anticancer Drug Screen. Data for tumor model P388 Leukemia (intraperitoneal) in CD2F1 (CDF1) mice
- measurementConditions: endpoint: median survival time; dose: 6.25 mg/kg/injection; schedule: Q01DX009 (ip); vehicle: saline
Toxic doses and inconclusive results are not listed. How the source made its calls: active means survival T/C of 150% or more; inactive means T/C below 125% in these data.
# output must be one of active, inactive

Give the logged outcome of this assay for the following compound: C/C(=N\N=C(N)N)c1ccccc1
inactive

Hi team, can someone confirm the assay call for CCCCC[N+]1(CC)CCCCC1 ?
inactive

For this compound, state the assay outcome: Cc1nsc(N)n1
inactive

What did this assay record as the result for CCN(CC)CCN(CC)CC.O.[Cu+2].[O-][Cl+3]([O-])([O-])O ?
inactive

Record lookup: outcome of this test for CC1CN(C(=O)Nc2ccc(Cl)c(Cl)c2)CC(C)O1 (centres undefined) ?
inactive

Dear colleague, could you share the recorded outcome for CC1=C2C(=CO[C@H](C)[C@H]2C)C(=O)C(C(=O)O)=C1O when you have a moment?
inactive

What was the test verdict on CN1CCN2c3ccccc3Cc3ccccc3C2C1 (centres undefined) ?
inactive

// param item: C(=N/NC1=NCCN1)/c1c2ccccc2c(/C=N\NC2=NCCN2)c2ccccc12 ; yields the recorded call
active

# fetch the recorded call for Nc1nc2ncc(CNc3ccc(C(=O)NC(CCC(=O)O)C(=O)O)cc3)nc2c(=O)[nH]1 (centres undefined) here
inactive

====

- Test system: P388 leukemia ip, CD2F1 mice, survival T/C
- assayOverview: NCI In Vivo Anticancer Drug Screen. Data for tumor model P388 Leukemia (intraperitoneal) in CD2F1 (CDF1) mice
- measurementConditions: endpoint: median survival time; dose: 200.0 mg/kg/injection; schedule: Q01DX005 (ip); vehicle: saline with Tween-80; higher = longer survival
- Experimental: The antitumor activity of compounds was measured in mice bearing transplantable tumors. Survival or tumor size were measured and the results are expressed as the measurement made in the treated group (T) divided by the measurement made in the vehicle treated control group (C). The tumor model used in this assay is P388 Leukemia (intraperitoneal) in CD2F1 (CDF1) mice
Inconclusive results and toxic doses are left out. Square brackets hold non-standard residues; d marks the D form. Peptide text beside a SMILES is read from it. * marks the point of attachment. ξ: configuration not given here. Cbz = O=C(OCc1ccccc1)*; ξI = CCC(C)C(N)C(=O)O
Give measured T/C for each item. Keep answers brief.

Answer with the recorded T/C of COC(=O)/C=C\C1(CCC(=O)OC)N=C(c2ccccc2)OC1=O (stereo not given) only.
96 % of control

Name the recorded T/C of the compound listed here: CC1=C(/C=C/C(C)=C/C=C/C(C)=C/CO)C(C)(C)CCC1
116 % of control

Determine its reported T/C: CCC(Oc1c2ccoc2c(OC)c2oc(=O)cc(O)c12)C(=O)O (stereo not given)
100 % of control

# return recorded T/C for entry COc1cc(C(CC(=O)O)CC(=O)O)cc(OC)c1OC
95 % of control

Tell me measured T/C for CCC(C)C(NC(=O)CNC(=O)CNC(=O)OCc1ccccc1)C(=O)O (stereo not drawn) (Cbz-Gly-Gly-[ξI]-OH) please.
102 % of control

====

- Tested on: P388 leukemia ip, CD2F1 mice, survival T/C
- assayOverview: NCI In Vivo Anticancer Drug Screen. Data for tumor model P388 Leukemia (intraperitoneal) in CD2F1 (CDF1) mice
- measurementConditions: endpoint: median survival time; dose: 50.0 mg/kg/injection; schedule: Q01DX009 (ip); vehicle: saline with Tween-80; higher = longer survival
Inconclusive results and toxic doses are left out.
measureName: T/C

Return the recorded T/C value; entry: Cc1ccc(SCC(=O)O)c(C)c1
88 % of control

Give recorded T/C. CC1(C)CC(N)=CC(=S)N1
101 % of control

Given the compound C[As](C)SC1CC(OC(=O)c2ccccc2)C(OC(=O)c2ccccc2)C(COC(=O)c2ccccc2)O1 (configuration not stated) , write its reported T/C.
100 % of control

Consider the compound CCN(CC)CCNc1ccc(C)c2sc3ccc(N)cc3c(=O)c12 . State its measured T/C.
124 % of control

Fill in T/C for record O=C1NN=CC1CCCN=Cc1cc(Br)ccc1O (configuration not stated)
96 % of control

Output T/C of COc1ccc(-c2cc(-c3ccccc3)c(-c3ccccc3)nn2)cc1
96 % of control

State its T/C: [S-]c1n[n+](-c2ccccc2)c(-c2ccccc2)s1
100 % of control

Supply T/C value. Item: CN(C)C1(c2ccccc2)CS(=O)(=O)C1
96 % of control

Supply T/C value. Item: CC1(C)CC(OP(=O)(OCCN2CC2)OCCN2CC2)CC(C)(C)N1O
107 % of control

Look up and report measured T/C for this entry: CCOC(=O)N1CCc2nc3ccc(Cl)cc3cc21
98 % of control

Given the compound N#CNC1=NC(c2ccccc2)CC=C1 (configuration not stated) , write its reported T/C.
102 % of control

Please look at this compound and report its T/C: O=C1NC(=O)NC(C(=O)O)N1
100 % of control
